Target: IKZF1 (Homo sapiens (Human), UniProt Q13422+Q96SW2)
Sequence (Q13422 whole entry): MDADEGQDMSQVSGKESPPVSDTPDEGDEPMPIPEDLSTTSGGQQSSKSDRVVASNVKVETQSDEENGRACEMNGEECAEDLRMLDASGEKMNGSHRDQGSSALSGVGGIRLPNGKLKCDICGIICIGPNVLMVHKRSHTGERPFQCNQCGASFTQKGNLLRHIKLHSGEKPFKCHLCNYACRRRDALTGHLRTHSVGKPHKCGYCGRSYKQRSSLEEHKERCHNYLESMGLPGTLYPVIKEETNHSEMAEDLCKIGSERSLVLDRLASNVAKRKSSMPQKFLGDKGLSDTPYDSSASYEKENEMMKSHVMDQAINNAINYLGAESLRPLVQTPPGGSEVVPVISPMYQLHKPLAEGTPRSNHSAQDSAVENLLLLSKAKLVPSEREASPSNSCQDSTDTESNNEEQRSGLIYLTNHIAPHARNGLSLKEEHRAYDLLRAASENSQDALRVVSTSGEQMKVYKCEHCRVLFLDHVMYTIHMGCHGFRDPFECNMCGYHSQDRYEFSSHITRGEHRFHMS
Sequence (Q96SW2 whole entry): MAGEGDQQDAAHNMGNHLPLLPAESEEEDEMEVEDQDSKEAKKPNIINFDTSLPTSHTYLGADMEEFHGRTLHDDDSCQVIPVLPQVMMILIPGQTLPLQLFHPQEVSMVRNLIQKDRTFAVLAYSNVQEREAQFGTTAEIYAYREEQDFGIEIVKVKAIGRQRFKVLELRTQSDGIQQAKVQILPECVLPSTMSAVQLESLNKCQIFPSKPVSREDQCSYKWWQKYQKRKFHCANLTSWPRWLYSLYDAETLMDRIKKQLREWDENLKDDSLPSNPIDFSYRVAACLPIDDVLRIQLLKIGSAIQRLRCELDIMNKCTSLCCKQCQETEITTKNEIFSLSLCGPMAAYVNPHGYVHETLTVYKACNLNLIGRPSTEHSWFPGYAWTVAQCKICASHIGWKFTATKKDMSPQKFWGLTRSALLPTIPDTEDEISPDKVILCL
Sequence (Q16531 whole entry partner): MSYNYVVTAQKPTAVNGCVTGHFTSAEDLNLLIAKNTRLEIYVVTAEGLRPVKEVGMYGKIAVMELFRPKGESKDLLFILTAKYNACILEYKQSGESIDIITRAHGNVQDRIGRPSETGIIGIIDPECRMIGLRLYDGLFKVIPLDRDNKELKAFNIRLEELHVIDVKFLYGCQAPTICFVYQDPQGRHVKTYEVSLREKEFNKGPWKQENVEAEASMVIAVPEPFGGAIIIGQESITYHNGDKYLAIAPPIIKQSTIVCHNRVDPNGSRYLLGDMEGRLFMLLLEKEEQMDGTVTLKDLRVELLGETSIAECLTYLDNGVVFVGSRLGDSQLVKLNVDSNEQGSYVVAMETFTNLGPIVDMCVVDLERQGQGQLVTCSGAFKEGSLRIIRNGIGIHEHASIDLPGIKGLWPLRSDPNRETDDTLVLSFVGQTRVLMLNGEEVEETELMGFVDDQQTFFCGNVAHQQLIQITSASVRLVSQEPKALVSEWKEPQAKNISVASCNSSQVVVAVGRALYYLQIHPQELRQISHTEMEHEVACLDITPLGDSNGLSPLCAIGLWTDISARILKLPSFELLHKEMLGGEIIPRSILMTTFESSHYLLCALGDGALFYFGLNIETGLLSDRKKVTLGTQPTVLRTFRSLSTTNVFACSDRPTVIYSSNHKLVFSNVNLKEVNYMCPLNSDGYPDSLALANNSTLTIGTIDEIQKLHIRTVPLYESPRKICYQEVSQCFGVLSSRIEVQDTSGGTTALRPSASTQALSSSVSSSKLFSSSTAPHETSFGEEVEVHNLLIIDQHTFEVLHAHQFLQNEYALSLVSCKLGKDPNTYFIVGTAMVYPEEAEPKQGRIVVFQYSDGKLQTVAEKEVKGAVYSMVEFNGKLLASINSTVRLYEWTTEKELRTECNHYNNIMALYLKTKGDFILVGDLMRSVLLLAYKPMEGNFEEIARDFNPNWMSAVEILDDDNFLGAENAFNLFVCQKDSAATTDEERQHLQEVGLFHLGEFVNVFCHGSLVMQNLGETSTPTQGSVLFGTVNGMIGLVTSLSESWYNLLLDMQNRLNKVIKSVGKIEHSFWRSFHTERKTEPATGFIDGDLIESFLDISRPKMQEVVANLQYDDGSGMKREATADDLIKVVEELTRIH
Assay: IKZF1 HiBit Assay (HEK293T Flp-in-HiBiT-IKZF1 stable cell line)
Assay type: cell-based
Details: HEK293T Flp-in-HiBiT-IKZF1 cells, 6 hrs; read-out: IKZF1 HiBit degradation DC50
Can you tell me DC50 for the items I'm about to list?

Example results:
• [2H]C([2H])(c1cccc(-c2cnn(C)c2)c1)N1CCC2(CC1)COc1c2ccc2c1CN([C@H]1CCC(=O)NC1=O)C2=O [Compound B11] = > 1000 nM
• O=C1CC[C@H](N2Cc3c(ccc4c3OCC43CCN(Cc4cnn(-c5ccc(Cl)cc5)c4)CC3(F)F)C2=O)C(=O)N1 (stereo partly drawn) [Compound B30] = > 1000 nM
• O=C1CC[C@H](N2Cc3c(ccc4c3OCC43CCN(Cc4cccc(-c5cnn(C6COC6)c5)c4)CC3(F)F)C2=O)C(=O)N1 (stereo partly drawn) [Compound B32] = > 1000 nM

Items follow; give DC50 for each.
1. O=C1CC[C@H](N2Cc3c(ccc4c3OCC43CCN(Cc4cnn(CC5CCOCC5)c4)CC3)C2=O)C(=O)N1 [Compound B6]
2. [2H]C([2H])(c1ccc2cnn(C)c2c1)N1CCC2(CC1)COc1c2ccc2c1CN([C@H]1CCC(=O)NC1=O)C2=O [Compound B8]
3. Cn1cc(-c2cccc(CN3CCC4(CC3)COc3c4cc(F)c4c3CN([C@H]3CCC(=O)NC3=O)C4=O)c2)cn1 [Compound B16]

Response line:
1. > 1000 nM
2. > 1000 nM
3. > 1000 nM

###

Can you tell me Dmax for the items I'm about to list?
Biological target: IKZF2 (Homo sapiens (Human), UniProt Q96SW2+Q9UKS7)
Sequence (Q9UKS7 whole entry, one chain of several): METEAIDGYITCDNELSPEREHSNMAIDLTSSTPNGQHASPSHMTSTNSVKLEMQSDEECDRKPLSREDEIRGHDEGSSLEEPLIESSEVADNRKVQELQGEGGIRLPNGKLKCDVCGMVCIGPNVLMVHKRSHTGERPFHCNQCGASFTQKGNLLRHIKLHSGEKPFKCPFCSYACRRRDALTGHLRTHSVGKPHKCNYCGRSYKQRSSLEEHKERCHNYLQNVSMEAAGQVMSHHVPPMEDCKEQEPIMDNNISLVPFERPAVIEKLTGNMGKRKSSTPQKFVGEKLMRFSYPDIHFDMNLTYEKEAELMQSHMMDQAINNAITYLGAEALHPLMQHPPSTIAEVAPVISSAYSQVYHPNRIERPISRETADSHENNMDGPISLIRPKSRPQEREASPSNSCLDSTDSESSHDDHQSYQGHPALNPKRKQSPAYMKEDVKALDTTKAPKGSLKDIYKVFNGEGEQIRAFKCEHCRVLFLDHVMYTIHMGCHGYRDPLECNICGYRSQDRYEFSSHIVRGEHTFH
Assay: IKZF2 HiBit Assay (HEK293T Flp-in-HiBiT cells)
Assay type: cell-based
Settings: HEK-293T; HEK293T Flp-in-HiBiT cells, 6 hrs; read-out: IKZF2 HiBit degradation Dmax

Example results:
- [2H]C([2H])([2H])n1cc(-c2cccc(CN3CCC4(CC3)COc3c4ccc4c3CN([C@H]3CCC(=O)NC3=O)C4=O)c2)cn1: > 80%
- Cn1cc(-c2cccc(CN3CCC4(CC3)COc3c5c(cc(F)c34)C(=O)N([C@H]3CCC(=O)NC3=O)C5)c2)cn1: > 80%
- Cn1ncc2c(CN3CCC4(COc5c4ccc4c5CN([C@H]5CCC(=O)NC5=O)C4=O)C(F)(F)C3)cccc21 (stereo partly drawn): 60 to 80%
- [2H]C([2H])(c1cccc(-c2cnn(C([2H])([2H])[2H])c2)c1)N1CCC2(COc3c2ccc2c3CN([C@H]3CCC(=O)NC3=O)C2=O)C(F)(F)C1 (stereo partly drawn): 60 to 80%
- Cn1cc2cccc(CN3CCC4(COc5c4ccc4c5CN([C@H]5CCC(=O)NC5=O)C4=O)C(F)(F)C3)c2n1 (stereo partly drawn): 60 to 80%

Now take the following compound into account.
Prompt line: Item Cn1cc(-c2cccc(CN3CC[C@@]4(COc5c4ccc4c5CN([C@H]5CCC(=O)NC5=O)C4=O)C(F)(F)C3)c2)cn1 has what recorded Dmax?
Response line: 40 to 60%

###

Biological target: IKZF2 (Homo sapiens (Human), UniProt Q96SW2+Q9UKS7)
Assay: IKZF2 FACS Assay (Jurkat cells)
Type: cell-based
Conditions: Jurkat cells, 24 hrs; read-out: IKZF2 FACS degradation Dmax
PROPERTY: Dmax

• Cn1cc(-c2cccc(CN3CCC4(CC3)COc3c5c(cc(F)c34)C(=O)N([C@H]3CCC(=O)NC3=O)C5)c2)cn1 = 40 to 60%

Items follow; give Dmax for each.
1. O=C1CC[C@H](N2Cc3c(ccc4c3OCC43CCN(Cc4cccc(-c5cnn(C6COC6)c5)c4)CC3(F)F)C2=O)C(=O)N1 (stereo partly shown)
2. O=C1CC[C@H](N2Cc3c(ccc4c3OCC43CCN(Cc4cnn(CC5CCOCC5)c4)CC3(F)F)C2=O)C(=O)N1 (stereo partly shown)
3. O=C1CC[C@H](N2Cc3c(ccc4c3OC[C@]43CCN(Cc4cccc(-c5cnn(C6COC6)c5)c4)CC3(F)F)C2=O)C(=O)N1
4. Cn1cc(-c2cccc(CN3CCC4(COc5c4ccc4c5CN(C5CCC(=O)NC5=O)C4=O)C(F)(F)C3)c2)cn1 (stereo not shown)

Response line:
["40 to 60%", "40 to 60%", "40 to 60%", "> 60%"]

Items follow; give Dmax for each.
1. N#Cc1ccc(-n2cc(CN3CCC4(COc5c4ccc4c5CN([C@H]5CCC(=O)NC5=O)C4=O)C(F)(F)C3)cn2)cc1 (stereo partly shown)
2. Cn1cc(-c2cccc(CN3CC[C@]4(COc5c4ccc4c5CN([C@H]5CCC(=O)NC5=O)C4=O)C(F)(F)C3)c2)cn1

Response line:
< 40%
> 60%

###

Target: IKZF1 (Homo sapiens (Human), UniProt Q13422+Q96SW2)
Assay: IKZF1 HiBit Assay (HEK293T Flp-in-HiBiT-IKZF1 stable cell line)
Format: cell-based
Details: HEK293T Flp-in-HiBiT-IKZF1 cells, 6 hrs; read-out: IKZF1 HiBit degradation DC50
PROPERTY: DC50

Example results:
* Cn1cc(-c2cccc(CN3CC[C@@]4(COc5c4ccc4c5CN([C@H]5CCC(=O)NC5=O)C4=O)C(F)(F)C3)c2)cn1 | > 1000 nM
* O=C1CC[C@H](N2Cc3c(ccc4c3OCC43CCN(Cc4ccc5[nH]ncc5c4)CC3(F)F)C2=O)C(=O)N1 (stereo partly shown) | > 1000 nM
* [2H]C([2H])(c1cccc(-c2cnn(C([2H])([2H])[2H])c2)c1)N1CCC2(CC1)COc1c2ccc2c1CN([C@H]1CCC(=O)NC1=O)C2=O | > 1000 nM
* O=C1CC[C@H](N2Cc3c(ccc4c3OCC43CCN(Cc4ccc5c(c4)C(=O)NC5)CC3(F)F)C2=O)C(=O)N1 (stereo partly shown) | > 1000 nM
* Cc1cc2c(c3c1C(=O)N([C@H]1CCC(=O)NC1=O)C3)OCC21CCN(Cc2cccc(-c3cnn(C)c3)c2)CC1 | > 1000 nM

Items follow; give DC50 for each.
1. [2H]C([2H])(c1cccc(-c2cnn(C([2H])([2H])[2H])c2)c1)N1CCC2(COc3c2ccc2c3CN([C@H]3CCC(=O)NC3=O)C2=O)C(F)(F)C1 (stereo partly shown)
2. O=C1CC[C@H](N2Cc3c(ccc4c3OCC43CCN(Cc4cc(-c5ccc(Cl)cc5)ns4)CC3)C2=O)C(=O)N1

Response line:
["> 1000 nM", "> 1000 nM"]

###

Target: IKZF2 (Homo sapiens (Human), UniProt Q96SW2+Q9UKS7)
Experiment: IKZF2 HiBiT Assay (Jurkat-IKZF2-HiBiT cell line)
Type: cell-based
Conditions: Jurkat-IKZF2-HiBiT cells, 24 hours; read-out: HiBit assay degradation analysis Dmax
PROPERTY: Dmax

Example results:
* O=C1CCC(N2Cc3c(ccc4c3OCC43CCN(Cc4cccc(-c5nccs5)c4)CC3)C2=O)C(=O)N1 (stereo not drawn) [Compound A106] | 60 to 80%
* O=C1CCC(N2Cc3c(ccc4c3OCC43CCN(Cc4ccc(F)c5ccccc45)CC3)C2=O)C(=O)N1 (stereo not drawn) [Compound A36] | 60 to 80%
* O=C1CCC(N2Cc3c(ccc4c3OCC43CCN(Cc4cccc5c4COC5)CC3)C2=O)C(=O)N1 (stereo not drawn) [Compound A113] | 60 to 80%
* O=C1CCC(N2Cc3c(ccc4c3OCC43CCN(Cc4cnn5c4CCC5)CC3)C2=O)C(=O)N1 (stereo not drawn) [Compound A244] | 60 to 80%
* O=C1CC[C@H](N2Cc3c(ccc4c3OCC43CCN(C[C@H]4C[C@@H](Oc5ccc(F)cc5)C4)CC3)C2=O)C(=O)N1 [Compound A358] | 40 to 60%
* O=C1CCC(N2Cc3c(ccc4c3OCC43CCN(Cc4ccccc4Cn4cccn4)CC3)C2=O)C(=O)N1 (stereo not drawn) [Compound A155] | 40 to 60%
* Cn1cc2ccc(CN3CCC4(CC3)COc3c4ccc4c3CN(C3CCC(=O)NC3=O)C4=O)cc2n1 (stereo not drawn) [Compound A69] | 60 to 80%
* Cn1c(=O)oc2ccc(CN3CCC4(CC3)COc3c4ccc4c3CN(C3CCC(=O)NC3=O)C4=O)cc21 (stereo not drawn) [Compound A175] | < 40%

Items follow; give Dmax for each.
1. O=C1CCC(N2Cc3c(ccc4c3OCC43CCN(Cc4cccc5cn[nH]c45)CC3)C2=O)C(=O)N1 (stereo not drawn) [Compound A52]
2. O=C1CCC(N2Cc3c(ccc4c3OCC43CCN(Cc4ccccc4-n4ccnc4)CC3)C2=O)C(=O)N1 (stereo not drawn) [Compound A149]
3. Cc1cc(CN2CCC3(CC2)COc2c3ccc3c2CN([C@H]2CCC(=O)NC2=O)C3=O)cc(-c2cnn(C3COC3)c2)c1 [Compound A279]

Response line:
["60 to 80%", "< 40%", "60 to 80%"]
